Test system: MS2 coat protein
assay-info: apparent KD of MS2 coat protein; designed switch direction (-1 OFF switch, 1 ON switch): -1; higher = weaker reporter binding
recorded-conditions: Eterna round: R95; input ligand: microRNA oligo, concentration not stated
measured-metric: apparent KD of MS2 coat protein

chain_sequence="GUAGAGUCAGGAUAUACAGAAAGUGGCUGGAAAACAGUGGCACAUGAGGAUCACCCAUGUAGAAGGGACUCUAC [ChP 11-04-2015 #1] (puzzle: Exclusion 2)" target_of_assay="MS2 coat protein" measured_metric="apparent KD of MS2 coat protein" obs_value="84.3 nM"

**Query** Request the reported apparent KD of MS2 coat protein associated with GAUUAUGCGAGCUUUAGGGACAUGAGGAUCACCCAUGUUCGUCUUAUUGGUCUAGGUACACUGACAUACCUAAAUCU [JMF 68] (puzzle: Sensor v3, turn-off variant 1)
**Result** 37.2 nM

**Query** Subsequent entry: AGAAGUAGUAACCGAUCCUACAUGAGGAUCACCCAUGUAGCUAGACGUGCACGCGACGCUCGUCAGACUACCAGAUG [salish99_TOv1_r3_029] (puzzle: Sensor v3, turn-off variant 1)
**Result** 324 nM

**Query** Another sequence to check: GGUGGACAUGAGGAUCACCCAUGUGAGGAUAUCGGCUAUCUACUCGCUGACGGCUGCUCGAGAAGGCGCAUUGU [Exclusion 1 V90] (puzzle: Exclusion 1)
**Result** 44.8 nM

**Query** // query: GGUAGUAUGAGUAGUCCUCAUUGAAGAGAUUGGUAAGAUACAUGAGGAUCACCCAUGUUUGAACAAGCUUUUGCUCU [JR_Sv3TOV2_Sub007] (puzzle: Sensor v3, turn-off variant 2)
**Result** 25.9 nM

**Query** What about GGGAUGUCAGGAUAUCCGAAAGUCUGCCAAUACGGCAGACAGGAGAAGGGACAUGAGGAUCACCCAUGUAAAGA [Aedxear] (puzzle: Exclusion 4) ?
**Result** 59.4 nM

**Query** Then what about the sequence AAAAUGUAAGGAUAUAGCCGGAACAAAGGGUCAAUAACCGGCUAGAAGGUACAUGAGGAUCACCCAUGUAAGAA [Excls4-V] (puzzle: Exclusion 4) ?
**Result** 13.3 nM

**Query** Repeat for the following sequence: AAGAAACAUGAGGAUCACCCAUGUGAGGAUAUGUAAAAGAAAAGAAAAUAAAGAAGAAACAGAAGGCACAAAGG [Mat - Mod of Hog D21] (puzzle: Exclusion 1)
**Result** 39.1 nM

**Query** Also, UUUAAUUUUUUUUUUUUACAAGCUUUUUGCUCGUCUUAUACAUGAGGAUCACCCAUGUAGGUGAAGAGUAAAUUAUC [JMF 58] (puzzle: Sensor v3, turn-off variant 2) please.
**Result** 109 nM

**Query** // repeat for ACAAGCUUUAGGCGUGUGAACAUGAGGAUCACCCAUGUAUUUUUGGUUAGGAGUUCUGUAAGGGAUGCUCGUCUUAU [JR_SWV3TOV1_Sub091] (puzzle: Sensor v3, turn-off variant 1) and report
**Result** 55.1 nM

**Query** Could you do the same for GAUUAUGCGAGCUUUAGGGACAUGAGGAUCACCCAUGUUCGUCUUAUUAGUCUAAAUACACUGACAUACCUAAAUCU [JMF 54] (puzzle: Sensor v3, turn-off variant 1) , please?
**Result** 15.9 nM

**Query** Let us now turn to GGAUCUUGGGUCAGGAUAUGCUGGUAUUUUUGCCAGCAGAAGGGACAUGAGGAUCACCCAUGUUCUUGGUUUUG [Magic-15] (puzzle: Brourd's mod of Exclusion 4)
**Result** 11 nM
